- assay target: full-length beta-Catenin (Uniprot ID P35222) (Homo sapiens, UniProt P35222)
- Construct: 10 nM full-length beta-Catenin (Uniprot ID P35222)
- Sequence (P35222 whole entry): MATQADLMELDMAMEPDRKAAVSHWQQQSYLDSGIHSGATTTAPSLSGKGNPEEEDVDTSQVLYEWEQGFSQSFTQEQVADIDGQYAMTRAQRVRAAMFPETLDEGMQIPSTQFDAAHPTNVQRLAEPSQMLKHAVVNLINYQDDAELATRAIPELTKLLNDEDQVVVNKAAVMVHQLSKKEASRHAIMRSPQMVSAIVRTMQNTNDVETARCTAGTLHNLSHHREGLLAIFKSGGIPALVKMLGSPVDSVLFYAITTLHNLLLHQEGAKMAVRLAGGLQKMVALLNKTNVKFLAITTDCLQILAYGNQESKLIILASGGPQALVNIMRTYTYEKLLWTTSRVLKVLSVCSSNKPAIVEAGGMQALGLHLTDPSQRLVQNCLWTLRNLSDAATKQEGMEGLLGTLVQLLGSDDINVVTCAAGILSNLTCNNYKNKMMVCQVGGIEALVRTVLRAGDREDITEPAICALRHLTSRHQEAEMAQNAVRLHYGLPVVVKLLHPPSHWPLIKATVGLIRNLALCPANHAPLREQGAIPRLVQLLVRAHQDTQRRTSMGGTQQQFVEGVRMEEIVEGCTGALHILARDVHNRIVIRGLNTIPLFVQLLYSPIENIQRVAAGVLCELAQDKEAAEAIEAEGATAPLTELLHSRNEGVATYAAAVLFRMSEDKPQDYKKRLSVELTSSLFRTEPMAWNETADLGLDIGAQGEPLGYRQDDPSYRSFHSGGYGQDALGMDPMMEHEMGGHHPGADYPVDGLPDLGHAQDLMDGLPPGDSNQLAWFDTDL
- test method notes: Fluorescence polarization IC50 (beta-catenin / 5FAM-TCF4 10-53 competition)
- Assay type: binding
- reported conditions: read-out: beta-Catenin FP IC50
Reported IC50 by item:
Your answer should be a plain number; it is taken to be in nM.

- compound: "CC(=O)N1CCC[C@]12CC=CCCCC1(CCCC=CCCCOC(=O)N3CC[C@@](C(=O)N[C@@H](Cc4ccccc4Cl)C(=O)N[C@@H](Cc4csc5ccccc45)C(=O)N[C@@H](CCC(N)=O)C(N)=O)(C3)NC(=O)[C@H](CC(N)=O)NC(=O)[C@H](Cc3ccccc3)NC(=O)[C@H](CC(C)C)NC(=O)[C@H](C)NC(=O)[C@H](CN(CC(=O)O)CC(F)(F)F)NC(=O)[C@H](CC(=O)O)NC1=O)NC(=O)[C@H](CC(C)(C)C)NC(=O)[C@H](CC(=O)O)NC2=O (some centres unmarked)"
  uom: "nM"
  IC50: 9

API: the following record is the query input.
Could you share what IC50 was measured for CC(=O)N1CCC[C@]12CC=CCCCC1(CCCC=CCCCOC(=O)N3CC[C@@](C(=O)N[C@@H](Cc4ccsc4)C(=O)N[C@@H](Cc4csc5ccccc45)C(=O)N[C@@H](CCC(N)=O)C(N)=O)(C3)NC(=O)[C@H](CC(N)=O)NC(=O)[C@H](Cc3ccccc3)NC(=O)[C@H](CCCCNC(=O)CN3CCN(C)CC3)NC(=O)[C@H](C)NC(=O)[C@H](CC(=O)O)NC(=O)[C@H](CC(=O)O)NC1=O)NC(=O)[C@H](CC(C)(C)C)NC(=O)[C@H](CC(=O)O)NC2=O (some centres unmarked) , tested on full-length beta-Catenin (Uniprot ID P35222) (Homo sapiens, UniProt P35222)?
14

---

- Test system: TCF/LEF luciferase Reporter in DLD1 cells
- test method notes: TCF reporter assay (DLD1 TCF/LEF luciferase reporter, Bright-Glo)
- Format: cell-based
- reported conditions: read-out: DLD1 4% Abs IC50; DLD1 4%
metric: IC50 (µM)
Express your answer in µM, writing the number without its unit.

- molecule: "CC(=O)N1CCC[C@]12CC=CCCCC1(CCCC=CCCCOC(=O)N3CC[C@@](C(=O)N[C@@H](Cc4ccccc4Cl)C(=O)N[C@@H](Cc4csc5ccccc45)C(=O)N[C@H](CO)CC(C)C)(C3)NC(=O)[C@H](CC(N)=O)NC(=O)[C@H](Cc3ccccc3)NC(=O)[C@H](C)NC(=O)[C@H](C)NC(=O)[C@H](CC(=O)O)NC(=O)[C@H](CC(=O)O)NC1=O)NC(=O)[C@H](CC(C)(C)C)NC(=O)[C@H](CC(=O)O)NC2=O (stereo partly drawn)"
  metric: "IC50"
  value observed: 10.4
- molecule: "CC(=O)N1CCC[C@]12CC=CCCCC1(CCCC=CCCCOC(=O)N3CC[C@@](C(=O)N[C@@H](Cc4ccccc4Cl)C(=O)N[C@@H](Cc4csc5ccccc45)C(=O)N[C@@H](CO)C(N)=O)(C3)NC(=O)[C@H](CO)NC(=O)[C@H](Cc3ccccc3)NC(=O)[C@H](C)NC(=O)[C@H](C)NC(=O)[C@H](CC(=O)O)NC(=O)[C@H](CC(=O)O)NC1=O)NC(=O)[C@H](CC(C)(C)C)NC(=O)[C@H](CC(=O)O)NC2=O (stereo partly drawn)"
  metric: "IC50"
  value observed: 7.8

Now turn to the next molecule.
Quick check: IC50 of CC(=O)N1CCC[C@]12CC=CCCCC1(CCCC=CCCCOC(=O)N3CC[C@@](C(=O)N[C@@H](Cc4ccccc4Cl)C(=O)N[C@@H](Cc4csc5ccccc45)C(=O)N[C@@H](C(N)=O)[C@H](C)O)(C3)NC(=O)[C@H](CC(N)=O)NC(=O)[C@H](Cc3ccccc3)NC(=O)[C@H](C)NC(=O)[C@H](C)NC(=O)[C@H](CC(=O)O)NC(=O)[C@H](CC(=O)O)NC1=O)NC(=O)[C@H](CC(C)(C)C)NC(=O)[C@H](CC(=O)O)NC2=O (stereo partly drawn) ?
3.6
